Target or system Kappa-type opioid receptor (Homo sapiens); recorded quantity AC50. Further: assay procedure not described here.
measuredParameter: AC50

{"compound": "CC(=O)S[C@@H]1CC2=CC(=O)CC[C@]2(C)[C@H]2CC[C@@]3(C)[C@@H](CC[C@@]34CCC(=O)O4)[C@H]12", "studySystem": "Kappa-type opioid receptor (Homo sapiens)", "measuredParameter": "AC50", "valueObserved": "14.8 µM"}
{"compound": "NS(=O)(=O)c1cc2c(cc1C(F)(F)F)NC(Cc1ccccc1)NS2(=O)=O (configuration not stated) [BENDROFLUMETHIAZIDE]", "studySystem": "Kappa-type opioid receptor (Homo sapiens)", "measuredParameter": "AC50", "valueObserved": "> 10 µM"}
{"compound": "CCCC(C)(COC(N)=O)COC(=O)NC(C)C (configuration not stated)", "studySystem": "Kappa-type opioid receptor (Homo sapiens)", "measuredParameter": "AC50", "valueObserved": "> 10 µM"}
{"compound": "COC(=O)N[C@@H](C)CNc1nccc(-c2cn(C(C)C)nc2-c2cc(Cl)cc(NS(C)(=O)=O)c2F)n1", "studySystem": "Kappa-type opioid receptor (Homo sapiens)", "measuredParameter": "AC50", "valueObserved": "13.7 µM"}
{"compound": "NS(=O)(=O)c1cc(C2(O)NC(=O)c3ccccc32)ccc1Cl (configuration not stated)", "studySystem": "Kappa-type opioid receptor (Homo sapiens)", "measuredParameter": "AC50", "valueObserved": "> 10 µM"}
{"compound": "CCN(CC)CCOC(=O)c1ccc(N)cc1Cl", "studySystem": "Kappa-type opioid receptor (Homo sapiens)", "measuredParameter": "AC50", "valueObserved": "> 30 µM"}
{"compound": "N=C(N)NCCCCCCC(=O)NC(O)C(=O)NCCCCNCCCN (configuration not stated)", "studySystem": "Kappa-type opioid receptor (Homo sapiens)", "measuredParameter": "AC50", "valueObserved": "> 30 µM"}
{"compound": "CC(C)OC(=O)C(C(=O)OC(C)C)=C1SC=CS1 [MALOTILATE]", "studySystem": "Kappa-type opioid receptor (Homo sapiens)", "measuredParameter": "AC50", "valueObserved": "> 30 µM"}
{"compound": "CO/N=C(\\C(=O)N[C@@H]1C(=O)N2C(C(=O)[O-])=C(C[n+]3cccc4c3CCC4)CS[C@H]12)c1csc(N)n1", "studySystem": "Kappa-type opioid receptor (Homo sapiens)", "measuredParameter": "AC50", "valueObserved": "> 30 µM"}
{"compound": "CC(=O)OCC[N+](C)(C)C", "studySystem": "Kappa-type opioid receptor (Homo sapiens)", "measuredParameter": "AC50", "valueObserved": "> 10 µM"}
{"compound": "COCCOC(=O)C1=C(C)NC(C)=C(C(=O)OC/C=C/c2ccccc2)C1c1cccc([N+](=O)[O-])c1 (configuration not stated)", "studySystem": "Kappa-type opioid receptor (Homo sapiens)", "measuredParameter": "AC50", "valueObserved": "> 30 µM"}
{"compound": "[H]/N=C(\\N/C(=N/[H])NCCCCCCNC(=N)NC(=N)Nc1ccc(Cl)cc1)Nc1ccc(Cl)cc1", "studySystem": "Kappa-type opioid receptor (Homo sapiens)", "measuredParameter": "AC50", "valueObserved": "3.99 µM"}
{"compound": "CN1CCN(CCCN2c3ccccc3Sc3ccc(S(=O)(=O)N(C)C)cc32)CC1", "studySystem": "Kappa-type opioid receptor (Homo sapiens)", "measuredParameter": "AC50", "valueObserved": "> 30 µM"}
{"compound": "O=C1CN2Cc3c(ccc(Cl)c3Cl)N=C2N1 [ANAGRELIDE]", "studySystem": "Kappa-type opioid receptor (Homo sapiens)", "measuredParameter": "AC50", "valueObserved": "> 10 µM"}
{"compound": "CCn1cc(C(=O)O)c(=O)c2cc(F)c(N3CCNCC3)nc21", "studySystem": "Kappa-type opioid receptor (Homo sapiens)", "measuredParameter": "AC50", "valueObserved": "> 10 µM"}
{"compound": "O=C1Nc2ccc(Cl)cc2C(c2ccccc2)=NC1O (configuration not stated)", "studySystem": "Kappa-type opioid receptor (Homo sapiens)", "measuredParameter": "AC50", "valueObserved": "> 10 µM"}
{"compound": "CC(NCCc1ccc(O)cc1)C(O)c1ccc(O)cc1 (configuration not stated)", "studySystem": "Kappa-type opioid receptor (Homo sapiens)", "measuredParameter": "AC50", "valueObserved": "14.4 µM"}
{"compound": "Oc1c(I)cc(Cl)c2cccnc12", "studySystem": "Kappa-type opioid receptor (Homo sapiens)", "measuredParameter": "AC50", "valueObserved": "> 30 µM"}
{"compound": "CN1[C@@H]2CC[C@H]1C[C@@H](OC(=O)c1c[nH]c3ccccc13)C2", "studySystem": "Kappa-type opioid receptor (Homo sapiens)", "measuredParameter": "AC50", "valueObserved": "> 30 µM"}
{"compound": "CCCCCCOC(=O)CCC(=O)CN [HEXAMINOLEVULINATE]", "studySystem": "Kappa-type opioid receptor (Homo sapiens)", "measuredParameter": "AC50", "valueObserved": "> 30 µM"}
{"compound": "CCCNC(C)C(=O)Nc1ccccc1C (configuration not stated)", "studySystem": "Kappa-type opioid receptor (Homo sapiens)", "measuredParameter": "AC50", "valueObserved": "> 30 µM"}
{"compound": "CC(C)(C)NCC(O)c1cc(Cl)c(N)c(Cl)c1 (configuration not stated)", "studySystem": "Kappa-type opioid receptor (Homo sapiens)", "measuredParameter": "AC50", "valueObserved": "28 µM"}
{"compound": "[H]/N=C(/N)N[C@H]1[C@H](O)[C@@H](O)[C@H](O[C@@H]2O[C@@H](C)[C@](O)(C=O)[C@H]2O[C@@H]2O[C@@H](CO)[C@H](O)[C@@H](O)[C@@H]2NC)[C@@H](N/C(N)=N\\[H])[C@@H]1O", "studySystem": "Kappa-type opioid receptor (Homo sapiens)", "measuredParameter": "AC50", "valueObserved": "> 30 µM"}
{"compound": "CCc1oc2ccccc2c1C(=O)c1cc(Br)c(O)c(Br)c1", "studySystem": "Kappa-type opioid receptor (Homo sapiens)", "measuredParameter": "AC50", "valueObserved": "> 10 µM"}
{"compound": "CC(C)c1cc2c(cc1S(=O)(=O)O)[C@@]1(C)CCC[C@@](C)(C(=O)O)[C@@H]1CC2", "studySystem": "Kappa-type opioid receptor (Homo sapiens)", "measuredParameter": "AC50", "valueObserved": "19 µM"}
{"compound": "CC#CCn1c(N2CCC[C@@H](N)C2)nc2c1c(=O)n(Cc1nc(C)c3ccccc3n1)c(=O)n2C", "studySystem": "Kappa-type opioid receptor (Homo sapiens)", "measuredParameter": "AC50", "valueObserved": "> 10 µM"}
{"compound": "N[C@H](Cc1cc(I)c(Oc2cc(I)c(O)c(I)c2)c(I)c1)C(=O)O", "studySystem": "Kappa-type opioid receptor (Homo sapiens)", "measuredParameter": "AC50", "valueObserved": "> 10 µM"}

These entries and their values trace back to ChEMBL document CHEMBL5291721.
